Test system: KHOS-NP
Assay: relative viability vs DMSO control (72 h) (fraction); higher = more viable cells
Settings: 0.01372 µM
outcome-measure: relative viability
Reply with the value as a number alone.

Field relative viability (entry `CS(=O)(=O)CCNCc1ccc(-c2ccc3ncnc(Nc4ccc(OCc5cccc(F)c5)c(Cl)c4)c3c2)o1` ) reads 1.05

Memo: `CN(C)C/C=C/C(=O)Nc1cc2c(Nc3ccc(F)c(Cl)c3)ncnc2cc1O[C@H]1CCOC1` , reported relative viability: 1.07

The value of relative viability measured for the compound `C=CC(=O)N1CCC(CNc2ncnc(N)c2-c2ccc(Oc3ccccc3)cc2)CC1` turned out to be 1.12

Data point: `CC(=O)c1c(C)c2cnc(Nc3ccc(N4CCNCC4)cn3)nc2n(C2CCCC2)c1=O` ; relative viability = 1.13

Data point: `Cc1cc(F)c(C(=O)Nc2cccc(-c3nncn3C(C)C)n2)cc1-n1cnc(C2CC2)c1` ; relative viability = 1.06

Entry `COC(=O)c1ccc2c(c1)NC(=O)/C2=C(\Nc1ccc(N(C)C(=O)CN2CCN(C)CC2)cc1)c1ccccc1` — recorded relative viability = 1.06
